- Tested on: SK-OV-3
- experiment_notes: Growth inhibition of human SKOV3 cells after 48 hrs by sulforhodamine B assay
- Assay type: functional
- experimental_context: SK-OV-3, 48 h

structure_string	GI50 [µM]
N#C/C(=C\N1CCN(C(=O)c2ccco2)C1=S)C(=O)Nc1ccc(Cl)cc1	41.2
CCOC(=O)/C(=C/N1CCN(C(=O)c2ccco2)C1=S)C(=O)c1ccccc1	20
O=C(c1ccc(Cl)cc1Cl)N1CCN(C(=O)c2ccc(Cl)cc2Cl)C1=S	22.8
O=CN1CCN(C(=O)c2ccco2)C1=S	26.6
N#C/C(=C\N1CCN(C(=O)c2ccco2)C1=S)C(N)=O	42.6
CC(=O)/C(=C/N1CCN(C(=O)c2ccco2)C1=S)C(=O)c1ccccc1	17.5
CC(=O)C(=CN1CCN(C(=O)c2ccco2)C1=S)C(C)=O	20
O=C(c1cccs1)N1CCN(C(=O)c2cccs2)C1=S	15.9
N#CC(C#N)=CN1CCN(C(=O)c2ccccc2)C1=S	66.7
COc1cc(C(=O)N2CCN(C(=O)c3cc(OC)c(OC)c(OC)c3)C2=S)cc(OC)c1OC	20.2
COC(=O)/C(C#N)=C/N1CCN(C(=O)c2ccco2)C1=S	28.2

---

- System: NCI-H322M
- experiment_notes: Growth inhibition of human NCI-H322M cells after 48 hrs by sulforhodamine B assay
- Format: functional
A collection of compounds and their measured GI50
observation_type: GI50 (µM)

structure_string	value_unit	measured
N#C/C(=C\N1CCN(C(=O)c2ccco2)C1=S)C(N)=O	µM	17.6
O=C(c1ccc(Cl)cc1Cl)N1CCN(C(=O)c2ccc(Cl)cc2Cl)C1=S	µM	18.1
O=CN1CCN(C(=O)c2ccco2)C1=S	µM	18.5
COC(=O)/C(C#N)=C/N1CCN(C(=O)c2ccco2)C1=S	µM	14
CC(=O)/C(=C/N1CCN(C(=O)c2ccco2)C1=S)C(=O)c1ccccc1	µM	27.9
N#C/C(=C\N1CCN(C(=O)c2ccco2)C1=S)C(=O)Nc1ccc(Cl)cc1	µM	28.6
O=C(c1cccs1)N1CCN(C(=O)c2cccs2)C1=S	µM	15.5
COC(=O)/C(=C\N1CCN(C(=O)c2ccco2)C1=S)C(C)=O	µM	12.4
CCOC(=O)/C(=C/N1CCN(C(=O)c2ccco2)C1=S)C(=O)c1ccccc1	µM	14.2
COc1cc(C(=O)N2CCN(C=O)C2=S)cc(OC)c1OC	µM	24.8
O=C(c1ccc(Cl)c(Cl)c1)N1CCN(C(=O)c2ccc(Cl)c(Cl)c2)C1=S	µM	19.8

---

- Test system: MDA-MB-231
- experiment_notes: Growth inhibition of human MDA-MB-231 cells after 48 hrs by sulforhodamine B assay
- Assay type: functional
- experimental_context: MDA-MB-231, 48 h
observation_type: GI50 (µM)

structure_string	observation_type	value_unit	measured
O=C(c1cc(Cl)cc(Cl)c1)N1CCN(C(=O)c2cc(Cl)cc(Cl)c2)C1=S	GI50	µM	16.2
COC(=O)/C(=C\N1CCN(C(=O)c2ccco2)C1=S)C(C)=O	GI50	µM	9
CC(=O)C(=CN1CCN(C(=O)c2ccco2)C1=S)C(C)=O	GI50	µM	2.6
O=C(c1ccc(Cl)cc1Cl)N1CCN(C(=O)c2ccc(Cl)cc2Cl)C1=S	GI50	µM	19.1
O=C(C(=CN1CCN(C(=O)c2ccco2)C1=S)C(=O)c1ccccc1)c1ccccc1	GI50	µM	7.4
COc1cc(C(=O)N2CCN(C=O)C2=S)cc(OC)c1OC	GI50	µM	21.5
O=CN1CCN(C(=O)c2ccco2)C1=S	GI50	µM	15.9
COC(=O)/C(C#N)=C/N1CCN(C(=O)c2ccco2)C1=S	GI50	µM	4.2
O=C(c1ccco1)N1CCN(C(=O)c2ccco2)C1=S	GI50	µM	12.2
N#C/C(=C\N1CCN(C(=O)c2ccco2)C1=S)C(=O)c1ccccc1	GI50	µM	13.7
O=C(c1ccc(Cl)c(Cl)c1)N1CCN(C(=O)c2ccc(Cl)c(Cl)c2)C1=S	GI50	µM	18.8

---

- Test system: HT-29
- experiment_notes: Growth inhibition of human HT-29 cells after 48 hrs by sulforhodamine B assay
- Type: functional
- experimental_context: HT-29, 48 h
For each record, check the reported GI50: if it is below 20 µM write Fulfilled, else write Not fulfilled.

structure_string	class
O=CN1CCN(C(=O)c2ccco2)C1=S	Fulfilled
COC(=O)/C(C#N)=C/N1CCN(C(=O)c2ccco2)C1=S	Fulfilled
CC(=O)/C(=C/N1CCN(C(=O)c2ccco2)C1=S)C(=O)c1ccccc1	Fulfilled
N#C/C(=C\N1CCN(C(=O)c2ccco2)C1=S)C(=O)Nc1ccc(Cl)cc1	Not fulfilled
COc1cc(C(=O)N2CCN(C=O)C2=S)cc(OC)c1OC	Not fulfilled
O=C(c1cc(Cl)cc(Cl)c1)N1CCN(C(=O)c2cc(Cl)cc(Cl)c2)C1=S	Not fulfilled
N#C/C(=C\N1CCN(C(=O)c2ccco2)C1=S)C(=O)c1ccccc1	Not fulfilled
COC(=O)/C(=C\N1CCN(C(=O)c2ccco2)C1=S)C(C)=O	Fulfilled
O=C(c1ccco1)N1CCN(C(=O)c2ccco2)C1=S	Fulfilled
O=C(c1ccc(Cl)c(Cl)c1)N1CCN(C(=O)c2ccc(Cl)c(Cl)c2)C1=S	Not fulfilled
CC(=O)C(=CN1CCN(C(=O)c2ccco2)C1=S)C(C)=O	Fulfilled
O=C(C(=CN1CCN(C(=O)c2ccco2)C1=S)C(=O)c1ccccc1)c1ccccc1	Fulfilled
N#CC(C#N)=CN1CCN(C(=O)c2ccco2)C1=S	Not fulfilled
O=C(c1cccs1)N1CCN(C(=O)c2cccs2)C1=S	Fulfilled
CCOC(=O)/C(=C/N1CCN(C(=O)c2ccco2)C1=S)C(=O)c1ccccc1	Fulfilled
N#CC(C#N)=CN1CCN(C(=O)c2ccccc2)C1=S	Not fulfilled
N#C/C(=C\N1CCN(C(=O)c2ccco2)C1=S)C(N)=O	Not fulfilled
COc1cc(C(=O)N2CCN(C(=O)c3cc(OC)c(OC)c(OC)c3)C2=S)cc(OC)c1OC	Not fulfilled

---

- System: OVCAR-3
- experiment_notes: Growth inhibition of human OVCAR-3 cells after 48 hrs by sulforhodamine B assay
- Format: functional
- experimental_context: OVCAR-3, 48 h
# reported GI50; entries follow
observation_type: GI50 (µM)

structure_string	assay_target	measured
O=C(c1cc(Cl)cc(Cl)c1)N1CCN(C(=O)c2cc(Cl)cc(Cl)c2)C1=S	OVCAR-3	10.2
CC(=O)C(=CN1CCN(C(=O)c2ccco2)C1=S)C(C)=O	OVCAR-3	11.4
COC(=O)/C(C#N)=C/N1CCN(C(=O)c2ccco2)C1=S	OVCAR-3	4.9
N#C/C(=C\N1CCN(C(=O)c2ccco2)C1=S)C(=O)c1ccccc1	OVCAR-3	18.2
O=C(c1ccco1)N1CCN(C(=O)c2ccco2)C1=S	OVCAR-3	2.7
CCOC(=O)/C(=C/N1CCN(C(=O)c2ccco2)C1=S)C(=O)c1ccccc1	OVCAR-3	20.2
CC(=O)/C(=C/N1CCN(C(=O)c2ccco2)C1=S)C(=O)c1ccccc1	OVCAR-3	17.2
N#CC(C#N)=CN1CCN(C(=O)c2ccco2)C1=S	OVCAR-3	11.2

---

- Tested on: SF-268
- experiment_notes: Growth inhibition of human SF268 cells after 48 hrs by sulforhodamine B assay
- Format: functional
- experimental_context: SF-268, 48 h
Output 1 for records whose GI50 is lower than 10 µM, 0 for records at or above 10 µM.

structure_string	class
COc1cc(C(=O)N2CCN(C=O)C2=S)cc(OC)c1OC	0
O=C(c1cc(Cl)cc(Cl)c1)N1CCN(C(=O)c2cc(Cl)cc(Cl)c2)C1=S	0
CCOC(=O)/C(=C/N1CCN(C(=O)c2ccco2)C1=S)C(=O)c1ccccc1	1
CC(=O)/C(=C/N1CCN(C(=O)c2ccco2)C1=S)C(=O)c1ccccc1	0
COc1cc(C(=O)N2CCN(C(=O)c3cc(OC)c(OC)c(OC)c3)C2=S)cc(OC)c1OC	0
N#CC(C#N)=CN1CCN(C(=O)c2ccco2)C1=S	0

---

- System: SK-MEL-28
- experiment_notes: Growth inhibition of human SK-MEL-28 cells after 48 hrs by sulforhodamine B assay
- Assay type: functional
- experimental_context: SK-MEL-28, 48 h
observation_type: log10 of GI50 (log10 of the value in µM)

structure_string	measured
CC(=O)C(=CN1CCN(C(=O)c2ccco2)C1=S)C(C)=O	0.59
N#CC(C#N)=CN1CCN(C(=O)c2ccccc2)C1=S	1.66
N#CC(C#N)=CN1CCN(C(=O)c2ccco2)C1=S	1.10
N#C/C(=C\N1CCN(C(=O)c2ccco2)C1=S)C(N)=O	1.20
CC(=O)/C(=C/N1CCN(C(=O)c2ccco2)C1=S)C(=O)c1ccccc1	1.45
COc1cc(C(=O)N2CCN(C=O)C2=S)cc(OC)c1OC	1.47
COC(=O)/C(=C\N1CCN(C(=O)c2ccco2)C1=S)C(C)=O	0.96
O=C(C(=CN1CCN(C(=O)c2ccco2)C1=S)C(=O)c1ccccc1)c1ccccc1	1.25
